TESTED SYSTEM: PbdA S87A (Rhodococcus jostii, UniProt Q0SCI3, S85A)
Construct: hexaHis (N, cleaved yes); PbdB: Rhodococcus jostii RHA1
Sequence (Q0SCI3 entry or part of it S85A): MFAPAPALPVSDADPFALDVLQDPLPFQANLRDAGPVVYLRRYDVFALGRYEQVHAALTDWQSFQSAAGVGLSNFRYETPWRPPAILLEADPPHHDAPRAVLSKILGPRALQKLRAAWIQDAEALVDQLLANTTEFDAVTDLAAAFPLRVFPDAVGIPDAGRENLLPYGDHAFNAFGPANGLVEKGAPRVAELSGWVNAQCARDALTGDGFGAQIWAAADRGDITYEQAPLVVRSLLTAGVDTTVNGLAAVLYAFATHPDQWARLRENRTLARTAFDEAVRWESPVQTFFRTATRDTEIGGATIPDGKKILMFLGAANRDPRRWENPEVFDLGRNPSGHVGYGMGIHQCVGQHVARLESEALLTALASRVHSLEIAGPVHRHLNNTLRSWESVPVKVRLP
PROCEDURE TEXT: Substrate binding to PbdA S87A variant by spectral titration
READOUT: Kd (µM)
Answers are plain numbers, in µM.

Examples with answers:
>>> numeric_value("COc1ccc(C(C)=O)cc1")
14
>>> numeric_value("COc1ccc(C(=O)O)cc1 [p-MBA, p-methoxybenzoate]")
50

Now look at this entry.
For the record COc1ccc(C=O)cc1 , what value of Kd is listed for PbdA S87A (Rhodococcus jostii, UniProt Q0SCI3, S85A)?
16
